molecular target: CDK9/CycT1 (Homo sapiens, UniProt P50750); construct: Recombinant full-length His-tagged human CDK9 and CycT1; purchased Life Technologies PV4131; host or cells: insect cells; assay: CDK9/CycT1 high ATP kinase assay (TR-FRET, 2 mM ATP); type: biochemical; conditions: 2 mM ATP (high ATP); median; read-out: CDK9/CyclinT1, 2 mM ATP (high ATP), IC50 (median)
Sequence (P50750 whole entry): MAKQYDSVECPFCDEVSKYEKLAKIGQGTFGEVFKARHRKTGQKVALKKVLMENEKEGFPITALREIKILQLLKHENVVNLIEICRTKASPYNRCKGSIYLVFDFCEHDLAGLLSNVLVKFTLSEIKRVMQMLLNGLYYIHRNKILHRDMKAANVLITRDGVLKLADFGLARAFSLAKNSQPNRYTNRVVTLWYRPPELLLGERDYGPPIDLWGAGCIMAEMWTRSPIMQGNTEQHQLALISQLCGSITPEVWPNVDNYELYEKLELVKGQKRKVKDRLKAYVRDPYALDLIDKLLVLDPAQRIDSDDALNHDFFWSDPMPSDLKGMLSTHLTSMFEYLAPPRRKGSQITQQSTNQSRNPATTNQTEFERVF
Sequence (O60563 whole entry partner): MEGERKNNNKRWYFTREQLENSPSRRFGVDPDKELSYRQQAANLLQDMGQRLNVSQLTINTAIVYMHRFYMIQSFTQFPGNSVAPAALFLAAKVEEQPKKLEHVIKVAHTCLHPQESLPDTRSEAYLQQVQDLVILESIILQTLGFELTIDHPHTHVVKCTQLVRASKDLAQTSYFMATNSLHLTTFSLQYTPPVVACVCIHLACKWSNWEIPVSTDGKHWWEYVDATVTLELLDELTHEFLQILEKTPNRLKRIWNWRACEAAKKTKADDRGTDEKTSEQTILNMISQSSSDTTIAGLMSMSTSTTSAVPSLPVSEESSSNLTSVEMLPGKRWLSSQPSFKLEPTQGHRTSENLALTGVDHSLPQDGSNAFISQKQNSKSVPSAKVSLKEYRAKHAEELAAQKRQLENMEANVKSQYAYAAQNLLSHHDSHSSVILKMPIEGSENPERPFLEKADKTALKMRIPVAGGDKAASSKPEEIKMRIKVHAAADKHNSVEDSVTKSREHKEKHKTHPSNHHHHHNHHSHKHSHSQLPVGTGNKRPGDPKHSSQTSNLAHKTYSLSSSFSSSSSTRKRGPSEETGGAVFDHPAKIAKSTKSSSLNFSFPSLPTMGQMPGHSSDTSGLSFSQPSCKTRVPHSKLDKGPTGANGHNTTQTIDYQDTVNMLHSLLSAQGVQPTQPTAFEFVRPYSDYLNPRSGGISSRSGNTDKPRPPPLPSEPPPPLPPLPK
pIC50: −log10 of the molar value.
readout_name: pIC50

Fc1cc(F)cc(-c2nnc(CNc3nc(N4CCOCC4)nc4c(C(F)(F)F)cnn34)[nH]2)c1    6.13
CN1CCN(c2nc(NCc3nc4ccccc4[nH]3)n3ncc(C(F)(F)F)c3n2)CC1    < 4.70
OC1CCN(c2nc(NCc3nc4ccccc4[nH]3)n3ncc(Br)c3n2)CC1    < 4.70
FC(F)(F)Cc1cnn2c(NCc3nc4cc(Cl)ccc4[nH]3)nc(N3CCOCC3)nc12    < 4.70
N[C@H]1[C@@H]2C[C@H]1CN(c1nc(NCc3nc4ccccc4[nH]3)n3ncc(Br)c3n1)C2    < 4.70

So for Cn1cc(-c2cnn3c(NCc4nc5cc(Cl)c(Cl)cc5[nH]4)nc(N4CCOCC4)nc23)cn1 , the logged pIC50 turned out to be < 4.70

The reported value for Fc1cc(F)cc(-c2nnc(CNc3nc(N4CCOCC4)nc4c(Br)cnn34)[nH]2)c1 in terms of pIC50 is 6.21

The recorded pIC50 for O[C@H]1CCN(c2nc(NCc3nc4ccccc4[nH]3)n3ncc(Br)c3n2)C1 is < 4.70

----------
test system: CAL-120, human breast adenocarcinoma cells; assay: Proliferation assay CAL-120 (crystal violet, 4 days); assay type: cell-based; conditions: Homo sapiens, CAL-120, 96 h, CAL-120 cells, median, read-out: Prolif-CAL-120, IC50-[mol/l] (median)
readout_name: IC50 (nM)

Recorded results for 4 compounds are shown here.
Brc1cnn2c(NCc3nc4ccccc4[nH]3)nc(N3C[C@H]4C[C@@H]3CO4)nc12 [Example 102]    27
FC(F)(F)c1cnn2c(NCc3nnc(-c4ccccc4)[nH]3)nc(N3CCOCC3)nc12 [Example 427]    44
OC[C@@H]1CCCCN1c1nc(NCc2nc3cc(F)ccc3[nH]2)n2ncc(C3CC3)c2n1 [Example 191]    1.16
CN(C)[C@@H]1CCN(c2nc(NCc3nc4ccccc4[nH]3)n3ncc(Br)c3n2)C1 [Example 178]    96.8

A = CC(C)(O)COc1nc(NCc2nc3ccccc3[nH]2)n2ncc(Br)c2n1 [Example 398]
B = Cc1ccc2[nH]c(CNc3nc(N4CCN(C)CC4)nc4c(Br)cnn34)nc2c1 [Example 158]
Task: Which entry has a larger number for IC50, A or B ? # reply format: chosen label
Output: A

I = CC1(C)CN(c2nc(NCc3nc4ccccc4[nH]3)n3ncc(C4CC4)c3n2)CCO1 [Example 123]
II = C[C@@H]1CN(c2nc(NCc3nc4ccccc4[nH]3)n3ncc(Br)c3n2)C[C@H](C)O1 [Example 73]
III = Clc1cc2nc(CNc3nc(N4CCOCC4)nc4c(C5CC5)cnn34)[nH]c2cc1Cl [Example 301]
Task: Order the 3 compounds from highest to lowest IC50. List labels; respect the requested ordering.
Output: I, II, III
(I: 83.2 nM, II: 23 nM, III: 5.74 nM)

1 = CC1(C)CN(c2nc(NCc3nnc(-c4ccccc4)[nH]3)n3ncc(Br)c3n2)CCO1 [Example 68]
2 = Fc1cccc(-c2cnc(CNc3nc(N4CCOCC4)nc4c(Br)cnn34)[nH]2)c1 [Example 79]
3 = Fc1cccc(-c2nnc(CNc3nc(N4CCOCC4)nc4c(Br)cnn34)[nH]2)c1 [Example 44]
4 = Fc1ccc2[nH]c(CNc3nc(N4CCOCC4)nc4c(C5CC5(F)F)cnn34)nc2c1F (stereo not shown) [Example 278]
5 = CN(c1nc(NCc2nc3ccccc3[nH]2)n2ncc(Br)c2n1)[C@H]1C[C@H](O)C1 [Example 365]
Task: Reorder: IC50, max to min. Rank the items, then write their labels in that order.
Output: 5, 1, 4, 2, 3
(5: 70.2 nM, 1: 40.2 nM, 4: 7.54 nM, 2: 4.67 nM, 3: 1.46 nM)
